# assay-system: ligand binding domain of the glucocorticoid receptor (Homo sapiens, UniProt P04150)
# Sequence (P04150 524-758 limits assumed): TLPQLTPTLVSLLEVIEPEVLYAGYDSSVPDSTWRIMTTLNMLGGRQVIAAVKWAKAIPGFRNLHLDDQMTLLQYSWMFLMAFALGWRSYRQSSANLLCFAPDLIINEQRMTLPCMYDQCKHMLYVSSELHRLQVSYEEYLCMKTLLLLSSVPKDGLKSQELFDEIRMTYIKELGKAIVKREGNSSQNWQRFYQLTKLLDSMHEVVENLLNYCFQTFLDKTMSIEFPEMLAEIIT
# test-details: GR antagonism assay (HEK293, dexamethasone 1.5 nM, Dual-glo)
# condition-summary: Table 8
Assign IC50 to each entry below.

Give the measured IC50 of CC#C[C@]1(O)CC[C@H]2[C@@H]3CCC4=CC(=O)CCC4=C3[C@@H](c3ccc(N(C)CCCCCC(=O)N4CCN(C(=O)c5cc(Cc6n[nH]c(=O)c7ccccc67)ccc5F)CC4)cc3)C[C@@]21C [Compound 135] .
< 0.01 µM

Also C[C@]12CC[C@H]3[C@@H](CCC4=CC(=O)CC[C@@]43C)[C@@H]1CC[C@@H]2C(=O)COCCCCCC(=O)N1CCN(C(=O)c2cc(Cc3n[nH]c(=O)c4ccccc34)ccc2F)CC1 [Compound 1386] ?
0.1 to 1 µM

Also CC(=O)O[C@]1(C(C)=O)CC[C@H]2[C@@H]3CCC4=CC(=O)CCC4=C3[C@@H](c3ccc(N(C)CCCCCC(=O)NCCOCCOCC(=O)N4CCN(C(=O)c5cc(Cc6n[nH]c(=O)c7ccccc67)ccc5F)CC4)cc3)C[C@@]21C [Compound 1384] ?
0.01 to 0.1 µM

====

# assay-system: Human recombinant PARP1 (Homo sapiens)
# Sequence (P09874 whole entry): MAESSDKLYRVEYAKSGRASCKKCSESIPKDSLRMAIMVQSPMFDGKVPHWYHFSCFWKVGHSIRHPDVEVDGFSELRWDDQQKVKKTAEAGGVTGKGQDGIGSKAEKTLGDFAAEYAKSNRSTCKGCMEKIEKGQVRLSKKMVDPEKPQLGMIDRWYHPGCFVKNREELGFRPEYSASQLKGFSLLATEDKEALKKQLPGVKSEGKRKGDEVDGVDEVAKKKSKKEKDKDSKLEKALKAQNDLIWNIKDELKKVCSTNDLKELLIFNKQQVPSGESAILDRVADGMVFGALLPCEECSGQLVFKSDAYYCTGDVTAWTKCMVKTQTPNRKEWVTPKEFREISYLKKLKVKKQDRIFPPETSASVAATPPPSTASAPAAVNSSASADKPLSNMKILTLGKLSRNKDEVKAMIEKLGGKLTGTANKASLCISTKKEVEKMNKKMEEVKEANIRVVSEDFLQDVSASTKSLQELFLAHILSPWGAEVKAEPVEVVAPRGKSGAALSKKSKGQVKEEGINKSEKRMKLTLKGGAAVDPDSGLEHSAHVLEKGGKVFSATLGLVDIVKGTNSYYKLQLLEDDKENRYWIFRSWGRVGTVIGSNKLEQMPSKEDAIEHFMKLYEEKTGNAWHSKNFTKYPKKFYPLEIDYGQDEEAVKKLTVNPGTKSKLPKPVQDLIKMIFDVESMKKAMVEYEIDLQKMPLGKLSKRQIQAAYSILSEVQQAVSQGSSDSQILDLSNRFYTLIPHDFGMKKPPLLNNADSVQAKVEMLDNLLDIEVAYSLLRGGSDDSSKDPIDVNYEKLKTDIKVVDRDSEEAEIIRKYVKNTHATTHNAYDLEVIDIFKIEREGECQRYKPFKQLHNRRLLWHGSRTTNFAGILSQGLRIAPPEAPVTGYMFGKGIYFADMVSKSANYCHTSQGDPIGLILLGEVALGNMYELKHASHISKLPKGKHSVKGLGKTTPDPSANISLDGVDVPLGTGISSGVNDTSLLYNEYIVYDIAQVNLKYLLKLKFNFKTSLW
# test-details: RBC HotSpot PARP1 assay (radioisotope-based filter binding)
# Format: biochemical
measurement-name: IC50

Request - read-out IC50 | tested on Human recombinant PARP1 (Homo sapiens) | molecule "C[C@]12C[C@H](CCCCCC(=O)N3CCN(C(=O)c4cc(Cc5n[nH]c(=O)c6ccccc56)ccc4F)CC3)C3=C4CCC(=O)C=C4CC[C@H]3[C@@H]1CCC2=O"
< 1 nM

====

# assay-system: AR, cytosol from LnCaP cells (Homo sapiens, UniProt P10275, T878A)
# Construct: AR in LNCaP cytosol was used; endogenous in cells; host or cells: LNCaP cells (cytosol)
# Sequence (P10275 whole entry T878A): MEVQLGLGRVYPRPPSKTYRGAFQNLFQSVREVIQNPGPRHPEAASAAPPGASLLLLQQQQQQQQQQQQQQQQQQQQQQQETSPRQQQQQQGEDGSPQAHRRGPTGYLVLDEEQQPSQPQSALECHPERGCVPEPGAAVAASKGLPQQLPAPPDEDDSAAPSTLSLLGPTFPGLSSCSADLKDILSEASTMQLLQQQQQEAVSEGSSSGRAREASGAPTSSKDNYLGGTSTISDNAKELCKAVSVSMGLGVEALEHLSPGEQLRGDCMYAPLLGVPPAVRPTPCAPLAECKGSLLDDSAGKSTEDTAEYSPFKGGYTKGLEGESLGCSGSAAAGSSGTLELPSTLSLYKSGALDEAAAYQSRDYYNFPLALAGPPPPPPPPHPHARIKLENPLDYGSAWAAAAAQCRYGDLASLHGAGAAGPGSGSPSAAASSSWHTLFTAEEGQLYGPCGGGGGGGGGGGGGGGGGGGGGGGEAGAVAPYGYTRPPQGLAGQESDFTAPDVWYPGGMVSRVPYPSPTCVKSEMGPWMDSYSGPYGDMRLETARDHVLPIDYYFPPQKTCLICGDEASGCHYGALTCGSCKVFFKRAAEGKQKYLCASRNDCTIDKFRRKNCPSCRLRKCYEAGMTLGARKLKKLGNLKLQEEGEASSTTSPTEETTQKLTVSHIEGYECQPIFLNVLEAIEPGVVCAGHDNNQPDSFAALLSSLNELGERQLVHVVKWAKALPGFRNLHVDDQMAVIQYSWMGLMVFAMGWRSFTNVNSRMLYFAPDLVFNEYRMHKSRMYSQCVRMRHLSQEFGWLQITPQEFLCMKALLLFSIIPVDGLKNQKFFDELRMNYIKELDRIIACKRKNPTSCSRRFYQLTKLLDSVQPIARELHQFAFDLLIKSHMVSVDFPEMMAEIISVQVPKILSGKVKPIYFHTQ
# test-details: AR binding assay, 3H-R1881 (Biological Example 2)
# condition-summary: Table 8; 3H-R1881 1 nM; read-out: AR binding
pIC50: −log10 of the molar value.
Assign pIC50 to each entry below.

Give the measured pIC50 of CC(=O)O[C@]1(C(C)=O)CC[C@H]2[C@@H]3CCC4=CC(=O)CCC4=C3[C@@H](c3ccc(N(C)CCCCCC(=O)NCCOCCOCC(=O)N4CCN(C(=O)c5cc(Cc6n[nH]c(=O)c7ccccc67)ccc5F)CC4)cc3)C[C@@]21C [Compound 1384] .
> 8.00

Also CC#C[C@]1(O)CC[C@H]2[C@@H]3CCC4=CC(=O)CCC4=C3[C@@H](c3ccc(N(C)CCCCCC(=O)NCCOCCOCC(=O)N4CCN(C(=O)c5cc(Cc6n[nH]c(=O)c7ccccc67)ccc5F)CC4)cc3)C[C@@]21C [Compound 1429] ?
7.00 to 8.00

Also CC#C[C@]1(O)CC[C@H]2[C@@H]3CCC4=CC(=O)CCC4=C3[C@@H](c3ccc(N(C)CCCCCC(=O)N4CCN(C(=O)c5cc(Cc6n[nH]c(=O)c7ccccc67)ccc5F)CC4)cc3)C[C@@]21C [Compound 135] ?
7.00 to 8.00

Also CC(=O)O[C@]1(C(C)=O)CC[C@H]2[C@@H]3CCC4=CC(=O)CCC4=C3[C@@H](c3ccc(N(C)CCCCCC(=O)N4CCN(C(=O)c5cc(Cc6n[nH]c(=O)c7ccccc67)ccc5F)CC4)cc3)C[C@@]21C [Compound 1378] ?
> 8.00

Also C[C@]12CC[C@H]3[C@@H](CCC4=CC(=O)CC[C@@]43C)[C@@H]1CC[C@@H]2C(=O)COCCCCCC(=O)N1CCN(C(=O)c2cc(Cc3n[nH]c(=O)c4ccccc34)ccc2F)CC1 [Compound 1386] ?
7.00 to 8.00
